test system: Mus musculus; experiment: Toxicity in ovariectomized ICR mouse assessed as effect on tail bleeding time at 110.3 nmol/kg, po treated for 4 weeks measured after 30 mins of last treatment; type: organism-based; conditions: in vivo, 0.5 h
Residues, ends and D or L forms follow the SMILES beside them. *: point of attachment. Succinyl(O17-estradiol) = C[C@]12CC[C@@H]3c4ccc(O)cc4CC[C@H]3[C@@H]1CC[C@@H]2OC(=O)CCC(=O)*; Acetyl(estradiol-3-yloxy) = C[C@]12CC[C@@H]3c4ccc(OCC(=O)*)cc4CC[C@H]3[C@@H]1CC[C@@H]2O
Result Type: Time (s)
Give bare numbers, in s.

C[C@]12CC[C@@H]3c4ccc(O)cc4CC[C@H]3[C@@H]1CC[C@@H]2O    417

Look up Time for the entries below, preserving their order.
1. C[C@]12CC[C@@H]3c4ccc(OCC(=O)N[C@@H](CCCNC(=N)N)C(=O)NCC(=O)N[C@@H](CC(=O)O)C(=O)N[C@@H](Cc5ccccc5)C(=O)O)cc4CC[C@H]3[C@@H]1CC[C@@H]2O ({Acetyl(estradiol-3-yloxy)}-RGDF-OH)
2. C[C@]12CC[C@@H]3c4ccc(O)cc4CC[C@H]3[C@@H]1CC[C@@H]2OC(=O)CCC(=O)N[C@@H](CCCNC(=N)N)C(=O)NCC(=O)N[C@@H](CC(=O)O)C(=O)N[C@@H](CO)C(=O)N[C@@H](CCCNC(=N)N)C(=O)NCC(=O)N[C@@H](CC(=O)O)C(=O)N[C@@H](CO)C(=O)O ({Succinyl(O17-estradiol)}-RGDSRGDS-OH)
3. C[C@]12CC[C@@H]3c4ccc(OCC(=O)N[C@@H](CCCNC(=N)N)C(=O)NCC(=O)N[C@@H](CC(=O)O)C(=O)N[C@@H](CO)C(=O)N[C@@H](CCCNC(=N)N)C(=O)NCC(=O)N[C@@H](CC(=O)O)C(=O)N[C@@H](CO)C(=O)O)cc4CC[C@H]3[C@@H]1CC[C@@H]2O ({Acetyl(estradiol-3-yloxy)}-RGDSRGDS-OH)
4. C[C@]12CC[C@@H]3c4ccc(O)cc4CC[C@H]3[C@@H]1CC[C@@H]2OC(=O)CCC(=O)N[C@@H](CCCNC(=N)N)C(=O)NCC(=O)N[C@@H](CC(=O)O)C(=O)N[C@@H](Cc1ccccc1)C(=O)N[C@@H](CCCNC(=N)N)C(=O)NCC(=O)N[C@@H](CC(=O)O)C(=O)N[C@@H](Cc1ccccc1)C(=O)O ({Succinyl(O17-estradiol)}-RGDFRGDF-OH)

Output:
557
562
564
584

For every item below, please supply its Time.
1. CC(C)[C@H](NC(=O)[C@H](CC(=O)O)NC(=O)CNC(=O)[C@H](CCCNC(=N)N)NC(=O)COc1ccc2c(c1)CC[C@@H]1[C@@H]2CC[C@]2(C)[C@@H](O)CC[C@@H]12)C(=O)O ({Acetyl(estradiol-3-yloxy)}-RGDV-OH)
2. C[C@]12CC[C@@H]3c4ccc(OCC(=O)N[C@@H](CCCNC(=N)N)C(=O)NCC(=O)N[C@@H](CC(=O)O)C(=O)N[C@@H](CO)C(=O)O)cc4CC[C@H]3[C@@H]1CC[C@@H]2O ({Acetyl(estradiol-3-yloxy)}-RGDS-OH)

Output:
[569, 582]
